# assayExplanation: Water solubility
# Assay type: physicochemical
# conditionInfo: water; hydrochloride salts; read-out: water solubility
Counter-ions that a name gives are not always drawn.
Some compounds, each annotated with its measured solubility.
endpointLabel: solubility (mg/mL)

| compound | endpointLabel | measValue |
| --- | --- | --- |
| COc1ccc2c(N)nc(N3CCCN(C(=O)C4CCCO4)CC3)nc2c1OC.Cl (centres unmarked) [Example 12] | solubility | 120 |
| COc1ccc2c(N)nc(N3CCCN(C(=O)c4ccco4)CC3)nc2c1OC [Example 11, hydrochloride] | solubility | 30 |
| COc1cc2nc(N3CCN(C(=O)OCC(C)(C)O)CC3)nc(N)c2cc1Cl [Example 9B, hydrochloride] | solubility | 6 |
| COc1ccc2c(N)nc(N3CCC(Cc4ccccc4)CC3)nc2c1OC.Cl [Example 13] | solubility | 6 |
| COc1ccc2c(N)nc(N3CCN(C(=O)c4ccco4)CC3)nc2c1OC.Cl [Example 4] | solubility | 20 |
| COc1c(Cl)cc2c(N)nc(N3CCN(C(=O)c4ccco4)CC3)nc2c1OC.Cl [Example 8A] | solubility | 8 |
| COc1cc2nc(N3CCN(C(=O)c4ccco4)CC3)nc(N)c2cc1Cl.Cl [Example 8B] | solubility | 5 |
| COc1c(Cl)cc2c(N)nc(N3CCN(C(=O)OCC(C)(C)O)CC3)nc2c1OC.Cl [Example 9A] | solubility | 35 |

###

# assayExplanation: Water solubility
# Type: physicochemical
# conditionInfo: Example 10 table; hydrochloride salts except as otherwise noted; solvent not given; read-out: Solubility

| compound | solubility [mg/mL] |
| --- | --- |
| COc1ccc2c(N)nc(N3CCN(c4ccccc4)CC3)nc2c1OC | 25 |
| COc1ccc2c(N)nc(N3CCN(C(=O)C4COc5ccccc5O4)CC3)nc2c1OC (stereo not shown) | 15 |
| CCOC(=O)N1CCN(c2nc(N)c3ccc(OC)c(OC)c3n2)CC1 | 50 |
| COc1ccc2c(N)nc(N3CCN(CCO)CC3)nc2c1OC | 95 |

Origin of measurements: patent US4377581A
